Target or system Kelch domain of human KEAP1 (321-624 aa) (Homo sapiens (Human)); recorded quantity Kd.

# input Report Kd for COCCCNc1ccc2c(n1)OC1(CC1)CN(Cc1cc([C@H](CC(=O)O)c3ccn4c(C(F)(F)F)nnc4c3C)ccc1C)S2(=O)=O (single isomer, unassigned) tested on Kelch domain of human KEAP1 (321-624 aa) (Homo sapiens (Human)).
# output < 1 nM

# input Again, but for Cc1cc2cc([C@H](CC(=O)O)c3ccc(C)c(CN4C[C@@H]5CCCCN5c5ncccc5S4(=O)=O)c3)n(C)c2nn1 (single isomer, unassigned)
# output < 1 nM

# input Then what about the molecule CCn1nnc2c(C)c([C@H](CC(=O)O)c3ccc(C)c(CN4CC5(CCOCC5)Oc5ccc(F)cc5S4(=O)=O)n3)ccc21 (single isomer, unassigned) ?
# output < 1 nM

---

Record form. Attribute: Kd. Fill in for each entry.
# TARGET OF ASSAY: Kelch domain of human KEAP1 (321-624 aa) (Homo sapiens (Human), UniProt Q14145)
# Sequence (Q14145 321-624): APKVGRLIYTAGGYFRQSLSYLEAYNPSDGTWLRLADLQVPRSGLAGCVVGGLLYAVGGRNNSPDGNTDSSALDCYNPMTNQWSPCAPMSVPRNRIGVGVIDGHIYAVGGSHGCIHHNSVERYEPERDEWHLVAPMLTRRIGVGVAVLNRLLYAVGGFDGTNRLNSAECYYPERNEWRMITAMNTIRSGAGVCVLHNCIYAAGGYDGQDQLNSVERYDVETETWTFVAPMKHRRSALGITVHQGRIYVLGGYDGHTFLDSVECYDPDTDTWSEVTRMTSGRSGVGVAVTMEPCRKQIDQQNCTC
# ASSAY COMMENT: KEAP1 KELCH ThermoFluor binding assay;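 note: Ligand-induced melting temperature shift of E. coli-expressed KEAP1 Kelch protein, Kd estimated from concentration-response curves of ΔTm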
# RECORDED CONDITIONS: KEAP Kelch […], 1,8-ANS, pH 7.0, average of results obtained, read-out: Tf Kd

# input Requested read-out: Kd. Entry: Cc1ccc([C@@H](c2ccn3c(C(F)F)nnc3c2C)C(C)(C)C(=O)O)nc1CN1CC2(CCOCC2)Oc2nc(OCCN3CCCC3)c(C)cc2S1(=O)=O (single isomer, unassigned) [Example 644]
# output < 1 nM

# input Then what about the compound Cc1ccc([C@H](CC(=O)O)c2cc(OC(F)F)c3c(c2)nnn3C)cc1CN1C[C@H]2CCCN2c2ncccc2S1(=O)=O (relative stereo) [Example 247] ?
# output < 1 nM

# input Continue with Cc1ccc([C@H](c2ccn3c(C(F)(F)F)nnc3c2C)C(C)(C)C(=O)O)cc1CN1CC2(CCOCC2)Oc2nc(OCCC3CCNCC3)c(C)cc2S1(=O)=O (single isomer, unassigned) [Example 369]
# output < 1 nM

# input Cc1ccc(C(CC(=O)O)c2ccn3c(C(F)F)nnc3c2C)cc1CN1CC2(COC2)Oc2ncccc2S1(=O)=O (stereo not drawn) [Example 469] ?
# output < 1 nM

# input Try Cc1ccc([C@H](c2ccn3c(C(F)(F)F)nnc3c2C)C(C)(C)C(=O)O)cc1CN1CC2(CCOCC2)Oc2nc(NC3CC(O)C3)c(C)cc2S1(=O)=O (stereo in doubt) [Example 125] next.
# output < 1 nM

# input Do the same for Cc1cnc2c(c1)S(=O)(=O)N(Cc1cc([C@H](c3ccn4c(C5CC5)nnc4c3C)C(C)(C)C(=O)O)ccc1C)CC1(COC1)O2 (single isomer, unassigned) [Example 619] please
# output < 1 nM

---

The following are reported pKd results, target or system Kelch domain of human KEAP1 (321-624 aa) (Homo sapiens (Human), UniProt Q14145).
pKd: −log10 of the molar value.

# input Enter reported pKd observed with Kelch domain of human KEAP1 (321-624 aa) (Homo sapiens (Human), UniProt Q14145) for Cc1ccc([C@H](CC(=O)O)c2ccn3c(C(F)(F)F)nnc3c2C)cc1CN1CC2(CC2)Oc2ncc(Cl)cc2S1(=O)=O (single isomer, unassigned)
# output > 9.00

# input Quick one: Cc1ccc([C@@H](CC(=O)O)c2ccn3c(C(F)F)nnc3c2C)cc1CN1CC2(CCOCC2)Oc2ccc(F)cc2S1(=O)=O (single isomer, unassigned)
# output > 9.00

# input Item: Cc1ccc([C@H](CC(=O)O)c2ccc3c(nnn3C3CC3)c2C)cc1CN1C[C@@H]2CCCCN2c2ncccc2S1(=O)=O (single isomer, unassigned)
# output > 9.00
